B1: PDS5B (parent)
chain: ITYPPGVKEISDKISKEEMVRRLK

variants of: B1; assay: protein stability index of a GFP-peptide fusion (GPS, HEK-293T) (PSI 1-6); higher = more stable; settings: c terminus: a fixed tail appended;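 note: lentivirally expressed fusions sorted by FACS into six bins by GFP to DsRed ratio, PSI derived from sequencing read proportions per bin multiplied by bin number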
property-measured: protein stability index

Example variants with recorded protein stability index:
K16N :: 2.63
S11L :: 2.38
Y3V :: 4.44
V20P :: 4.26
E17L :: 2.59

Req: Find the recorded protein stability index belonging to L23D and report it.
Resp: 5.12

Req: Follow-up item: S15Q
Resp: 3.65

Req: Follow-up item: E18S
Resp: 3.21

Req: Follow-up item: S11I
Resp: 2.83

Req: Follow-up item: I14F
Resp: 3.03

Req: Follow-up item: V7E
Resp: 3.09

Req: Follow-up item: L23V
Resp: 4.29
